Experiment: BET inhibitor-based combinations targeting novel dependencies in MECOM-rearranged (r) AML: MV-4-11 cell line (AID 2202233); also: nearly all actives have a fitted effect of over 45% in size
Settings: MV-4-11 AML viability, CellTiter-Glo luminescence, 48 h; series mostly up to 46 µM
Protocol: Ecotropic viral insertion site 1 (EVI1) is located on chromosome 3q26.2 as part of the MECOM (MDS and EVI1 complex) locus. […] A collection of 2480 mechanistically annotated dugs (MIPE v5.0) was used to screen four 3q26.2 rearranged AML cell lines and three non-3q26.2 rearranged AML cell lines. […] Cell viability was determined by luminescence based, Cell Titer Glo assay (Promega). […] Luminescence readings were taken using a Viewlux (PerkinElmer) with a 2 s exposure time per plate. […]
Results filed as inconclusive are left out. Active and inactive are the calls of the source. Calls follow the shape of the dose curve; as a rule, active = well fitted inhibition curve with a large enough effect; inconclusive = small, poorly fitted or top-dose-only effect; inactive = no such curve, though single readings can be large or run the other way.
Classes used: 1 (yes) = active, 0 (no) = inactive

compound-string	cat
CNCCCOc1cc(F)c(-c2c(Cl)nc3ncnn3c2N[C@@H](C)C(F)(F)F)c(F)c1	1 (yes)
CCc1cc(/C(C)=N/OCc2ccc(C3CCCCC3)c(C(F)(F)F)c2)ccc1CN1CC(C(=O)O)C1	1 (yes)
C=CC(=O)Nc1ccc2ncnc(Nc3cccc(Br)c3)c2c1	1 (yes)
CC#CC(=O)N1CC[C@@H](n2c(=O)n(-c3ccc(Oc4ccccc4)cc3)c3c(N)ncnc32)C1	1 (yes)
Cc1c(Cl)cccc1S(=O)(=O)Nc1nc(CCN2CCOCC2=O)cs1	0 (no)

###

Experiment: BET inhibitor-based combinations targeting novel dependencies in MECOM-rearranged (r) AML: AML-191 cell line (AID 2202236; also: nearly all actives have a fitted effect of over 35% in size; also: potency is read from the fitted curve at half-maximal effect)
Conditions: AML-191 viability, CellTiter-Glo luminescence, 48 h; series mostly up to 46 µM
Records with an inconclusive call do not appear. The source made the active and inactive calls. The call rests on the fitted dose curve; in most records, active means well fitted inhibition curve with a large enough effect; inconclusive means small, poorly fitted or top-dose-only effect; inactive means flat fitted curve, though single readings scatter.

compound	Potency
Nc1nc(OC(c2ccc(-c3cccc(F)c3)cc2)C(F)(F)F)cc(-c2ccc(C[C@@H](N)C(=O)O)cc2)n1 (some centres undefined)	inactive
Cc1c(NC(=O)c2cc(C(N)=O)nc3cc(F)ccc23)c(C(F)(F)F)nn1Cc1ccc(C(C)(C)C)cc1	16.6 µM (active)
CN(CCOc1ccc(C[C@H](Nc2ccccc2C(=O)c2ccccc2)C(=O)O)cc1)c1ccccn1	inactive
CCn1cc(-c2ccnc3[nH]c(-c4cccc(CN(C)C)c4)cc23)c(-c2ccc(NC(=O)N(C)C)cc2)n1	5.25 µM (active)

###

Target: Aldehyde dehydrogenase 1A1 (Homo sapiens) (UniProt P00352)
Test: qHTS for Inhibitors of the Aldehyde Dehydrogenase Family (ALDH1A1) Confirmatory screens (AID 2061316); also: nearly all actives have a fitted effect of over 65% in size
Details: ALDH inhibition qHTS; series mostly up to 47.3 µM
Inconclusive results are not listed. Calls of active or inactive are those of the source. Calls follow the shape of the dose curve; as a rule, active = well fitted inhibition curve with a large enough effect; inconclusive = small, poorly fitted or top-dose-only effect; inactive = no such curve, though single readings can be large or run the other way.
Classes used: active, inactive

compound	cat
Cc1ccc(OCCn2c(CCNC(=O)c3ccccc3N)nc3ccccc32)cc1	active
O=c1c2ccccc2nc2sc(NS(=O)(=O)c3ccc4c(c3)CCC4)nn12	active
CC(=O)Nc1ccc(OCc2cccc(-c3nc4ccccc4c(=O)n3Cc3ccco3)c2)cc1	active
CCc1cc(N2CCOC(c3ccc4cc(OC)ccc4c3)C2)nc(C)n1 (centres undefined)	inactive
COc1ccc(N2CCN(C(=S)Nc3cc(C)ccn3)CC2)cc1	active
Cc1c(C(=O)OCC2CCCCO2)[nH]c2c1C(=O)CC(c1ccco1)C2 (centres undefined)	active
Cc1ccc(CNc2ccccc2C(=O)Nc2nc(-c3ccccc3)cs2)cc1	active
Fc1ccc(NC(=S)Nc2nnc(-c3ccncc3)s2)cc1C(F)(F)F	active
CC(C)(C)OC(=O)N1CCN(c2ccc(NCc3ccc(-c4ccc(C#N)cc4)s3)cc2)CC1	active
CC(=O)Nc1sc2c(c1-c1ccccc1)CCN(C(=O)OC(C)(C)C)C2	active
Cc1cc(C)nc(NC(=S)N2CCN(c3ccc4cn(C)nc4c3)CC2)c1	active
O=C(NCCCN1CCNCC1)c1cccc(-c2cc(O)c3ncccc3c2)c1	inactive
O=C(Cc1ccccc1)Nc1sc2c(c1C(=O)Nc1ccc(Cl)cc1)CCCC2	active
O=C(CSc1nc2ccccc2n1CCc1ccccc1)c1ccc(O)c(O)c1	active
Cc1ccc(S(=O)(=O)Nc2cc(S(=O)(=O)c3ccc(C)cc3)c(O)c3cccnc23)cc1	active
CCc1ccc(-n2c(=O)c3cccnc3n2CC(=O)N(CC)c2cccc(C)c2)cc1	active
Cc1cc(C)nc(NC(=S)N2CCN(c3cccc4[nH]ccc34)CC2)c1	active
COc1ccc(C2Nc3ccccc3C(=O)N2Cc2ccco2)cc1COc1ccc(N)cc1 (centres undefined)	active
CCOC(=O)c1[nH]c2c(c1C)C(=S)CC(c1ccco1)C2 (centres undefined)	active
COc1ccnc(NC(=S)N2CCN(c3cccc(Cl)c3Cl)CC2)c1	active
O=C(Nc1ccc2c(c1)OCO2)Nc1nnc(-c2ccncc2)s1	inactive
CC(=O)Nc1sc2c(c1-c1nc3ccccc3s1)CNCC2	active
CC(C)(C)C(=O)N1CCN(c2cccc(Nc3nn4c(=O)c5ccccc5nc4s3)c2)CC1	active
COc1ccc(-n2c(C)c(C(C)=O)c3cc(OC(=O)c4ccc(C)cc4)ccc32)cc1	inactive
